# Tested on: A549 cell line
# testMethodNotes: Cell survival measured by XTT (Cell Proliferation Kit II)
# Format: cell-based
# statedConditions: A549, 24 hours incubation, XTT dehydrogenase activity; read-out: CI50 (concentration giving 50% inhibition of cell activity)
assayReadout: IC50 (nM)
Return type: number; implicit unit nM.

(Q) Any idea what IC50 was measured for GRKKRRQRRRPPQVLIVKKYVCGGRFLVHRYSVLQQHAEANGVDGVDALDTASHTNKSGYHDDSDEDLLEGKPIPNPLLGLDST [SEQ ID NO 7] ?
(A) 1420

----------
# Test system: A549 cell line
# testMethodNotes: Cell survival measured by XTT (Cell Proliferation Kit II)
# Format: cell-based
# statedConditions: A549, 48 hours incubation, XTT dehydrogenase activity; read-out: CI50 (concentration giving 50% inhibition of cell activity)
assayReadout: pIC50
# reply with the number alone; pIC50 is -log10 of concentration in mol/L

(Q) Query: pIC50; subject: GRKKRRQRRRPPQVLIVKKYVCGGRFLVHRYSVLQQHAEANGVDGVDALDTASHTNKSGYHDDSDEDLLEGKPIPNPLLGLDST [SEQ ID NO 7]
(A) 5.82
